Measured values drawn from the RNAGym collection of RNA variant scans (doi:10.7554/elife.80360) for this set.

For each entry below, report its self-cleavage value.
B1: Hairpin Ribozyme (parent)
chain: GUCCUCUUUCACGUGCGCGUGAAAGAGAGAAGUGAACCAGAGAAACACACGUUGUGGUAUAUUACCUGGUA

- Variants of: B1
- ASSAY_REMARKS: self-cleavage, relative activity (ratio to wild type); higher = more cleavage; co-transcriptional
Lab note: jot down the number only; don't add units.

Problem: Report self-cleavage, nothing else, for this variant: C50U A59G
Result: 0.204

Problem: Please give the documented self-cleavage of C12U U33A
Result: 0.205

Problem: State, in one line, measured self-cleavage of A22G C48A
Result: 0.16

Problem: Tell me its self-cleavage given A49U G54A as the entry.
Result: 0.477

Problem: Please give the documented self-cleavage of U20G A41U
Result: 1.3

Problem: Look up self-cleavage of A47C C50G and report it.
Result: 0.0249

Problem: Supply self-cleavage value. Item: A36U C65U
Result: 0.113

Problem: Indicate the recorded self-cleavage value for this variant: A23U U63A
Result: 0.142
